tested on: Escherichia coli IAI1; assay: fold change of Cadaverine concentration vs plate DMSO controls (fold change (ratio)); higher = more amine produced, active = hit call of the paper (significant change in both replicates, either direction); conditions: 20 µM; incubation time: 27 h, anaerobic, 37 °C
Counter-ions that a name gives are not always drawn.
Listing of entries alongside the reported fold change of Cadaverine concentration.

| compound | fold change of Cadaverine concentration |
| --- | --- |
| C[C@]12CC[C@H](O)C[C@@H]1CC[C@@H]1[C@@H]2CC[C@]2(C)C(=O)CC[C@@H]12 [Epiandrosterone] | 1.02 |
| C#CCOc1ccc(CCNC(=O)C(OCC#C)c2ccc(Cl)cc2)cc1OC (centres undefined) | 0.933 |
| C[C@]12CCC(=O)C=C1C=C[C@@H]1[C@@H]2CC[C@@]2(C)[C@H]1CC[C@@]2(O)CCC(=O)O [Canrenoic acid potassium salt] | 0.997 |
| CC(C)(C)NCC(O)c1ccccc1Cl (centres undefined) [Tulobuterol Hydrochloride] | 0.993 |
